Field: crop damage rating RICE. Provide a value for each of the molecules that follow.
- Test system: upland rice (Oryza sp., var.Tebonnet, RICE)
- assay: Post-emerge greenhouse test, crop damage rating
- Assay type: in vivo
- experimental_context: rate 63 g ai/ha, 14 days after application, scale 0-100

Worked cases, crop damage rating RICE given:
The molecule CCOC(=O)C(C)Oc1ccc(Oc2cc(-n3c(=O)n4n(c3=S)CCCC4)c(F)cc2Cl)c(N)c1 (stereo not drawn) showed crop damage rating RICE equal to 0

The molecule Nn1c(C(F)(F)F)cc(=O)n(-c2cc(Oc3cccc(F)n3)c(Cl)cc2F)c1=O showed crop damage rating RICE equal to 50

Lab note: next molecule to report on.
The molecule O=c1n(-c2cc(Oc3ccccn3)c(Cl)cc2F)c(=S)n2n1CCCC2 showed crop damage rating RICE equal to 40

###

- Test system: ivyleaf morningglory (Ipomoea hederacea, IPOHE)
- assay: Post-emerge greenhouse herbicide test, phytotoxicity rating
- Assay type: in vivo
- experimental_context: 500 g al/ha, 14 days after application
Short version: IPOHE phytotoxicity rating (0-100) at least 80 is criterion met, less is criterion not met.

Evaluate Cc1nsc(Oc2cc(-n3nnn(CCCF)c3=O)c(F)cc2Cl)c1[N+](=O)[O-] : IPOHE phytotoxicity rating (0-100) at minimum 80?
criterion not met

Others:
Evaluate Cc1nn(-c2cc(Oc3ncccn3)c(Cl)cc2F)c(=O)n1C(F)F : IPOHE phytotoxicity rating (0-100) at minimum 80?
criterion met

###

- Tested on: barnyardgrass (Echinochloa crusgalli, ECHCG)
- assay: Pre-emerge greenhouse herbicide test, phytotoxicity rating
- Assay type: in vivo
- experimental_context: Echinochloa crus-galli, pre-emergence, 336 h, Rate 500 g al/ha, 14 days after application, rating scale 0-100
- Experimental: A standard greenhouse herbicide activity screening system was used to evaluate the herbicidal efficacy and crop safety of these test compounds. […] At 14 days after application of the test materials, phytotoxicity ratings were recorded. […]
endpoint: pest or weed control at 500 g/ha (%)
Answers are plain numbers, in %.

Worked cases, pest or weed control at 500 g/ha given:
The compound Nn1c(C(F)(F)F)cc(=O)n(-c2cc(Oc3ccc(Br)cn3)c(Cl)cc2F)c1=O [Compound 9-2] showed pest or weed control at 500 g/ha equal to 95

The compound N#Cc1cccnc1Oc1cc(-n2c(=O)cc(C(F)(F)F)n(N)c2=O)c(F)cc1Cl [Compound 9-9] showed pest or weed control at 500 g/ha equal to 100

Below are 4 compounds. Give each one its pest or weed control at 500 g/ha.
1. Nn1c(C(F)(F)F)cc(=O)n(-c2cc(Oc3nccc(Cl)n3)c(Cl)cc2F)c1=O [Compound 9-17]
2. Nn1c(C(F)(F)F)cc(=O)n(-c2cc(Oc3cc(C(F)(F)F)ccn3)c(Cl)cc2F)c1=O [Compound 9-8]
3. Nn1c(C(F)(F)F)cc(=O)n(-c2cc(Oc3ccccc3[N+](=O)[O-])c(Cl)cc2F)c1=O [Compound 9-21]
4. O=c1n(-c2cc(Oc3ncccc3C(F)(F)F)c(Cl)cc2F)c(=S)n2n1CCCC2 [Compound 8-18]

1. 100
2. 99
3. 100
4. 80

###

Field: DIGSA phytotoxicity rating (0-100). Provide a value for each of the compounds that follow.
- System: large crabgrass (Digitaria sanguinalis, DIGSA)
- assay: Post-emerge greenhouse herbicide test, phytotoxicity rating
- Assay type: in vivo
- experimental_context: 500 g al/ha, 14 days after application
Give bare numbers.

The compound O=c1n(-c2cc(Oc3ccc([N+](=O)[O-])cc3)c(Cl)cc2F)c(=S)n2n1CCCC2 [Compound 8-8] showed DIGSA phytotoxicity rating (0-100) equal to 0

The compound O=c1n(-c2cc(Oc3ccc([N+](=O)[O-])cc3C(F)(F)F)c(Cl)cc2F)c(=S)n2n1CCCC2 [Compound 8-14] showed DIGSA phytotoxicity rating (0-100) equal to 0

The compound O=c1n(CCCF)nnn1-c1cc(Oc2ncccc2[N+](=O)[O-])c(Cl)cc1Cl [Compound 6-3] showed DIGSA phytotoxicity rating (0-100) equal to 0

The compound O=c1n(CCCF)nnn1-c1cc(Oc2ncccn2)c(Cl)cc1Cl [Compound 6-14] showed DIGSA phytotoxicity rating (0-100) equal to 30

Below are 4 compounds. Give each one its DIGSA phytotoxicity rating (0-100).
1. COc1cc(OC)nc(Oc2cc(-n3nnn(CCCF)c3=O)c(F)cc2Cl)n1 [Compound 6-15]
2. Cn1nc(-c2cc(Oc3ncccn3)c(Cl)cc2F)c(Cl)c1C(F)(F)F [Compound 1-7]
3. Cn1nc(-c2cc(Oc3ncccc3[N+](=O)[O-])c(Cl)cc2F)c(Cl)c1C(F)(F)F [Compound 1-1]
4. O=c1n(CCCF)nnn1-c1cc(Oc2ncccc2C(F)(F)F)c(Cl)cc1Cl [Compound 6-7]

[0, 100, 95, 10]

###

- Test system: large crabgrass (Digitaria sanguinalis, DIGSA)
- assay: Post-emerge greenhouse herbicide test, phytotoxicity rating
- Format: in vivo
- experimental_context: 500 g al/ha, 14 days after application
Lab note: cut-off is 10. Strictly less in DIGSA phytotoxicity rating (0-100) is satisfied. Exactly 10 or more is not satisfied.

For this compound, is DIGSA phytotoxicity rating (0-100) lower than 10? CCN1CC(=O)N(c2cc(Oc3ncccn3)c(Cl)cc2F)C1=O
not satisfied

For this compound, is DIGSA phytotoxicity rating (0-100) lower than 10? O=c1n(-c2cc(Oc3ccccc3)c(Cl)cc2F)c(=S)n2n1CCCC2
not satisfied

For this compound, is DIGSA phytotoxicity rating (0-100) lower than 10? Cn1c(C(F)(F)F)nc(-c2cc(Oc3ncccn3)c(Cl)cc2F)c1Cl
not satisfied

For this compound, is DIGSA phytotoxicity rating (0-100) lower than 10? O=c1n(CCCF)nnn1-c1cc(Oc2ncccn2)c(Cl)cc1F
not satisfied

For this compound, is DIGSA phytotoxicity rating (0-100) lower than 10? O=c1n(CCCF)nnn1-c1cc(Oc2ccc(C(F)(F)F)cn2)c(Cl)cc1F
not satisfied

Others:
For this compound, is DIGSA phytotoxicity rating (0-100) lower than 10? CCN1CC(=O)N(c2cc(Oc3ncccc3C(F)(F)F)c(Cl)cc2F)C1=O
satisfied

For this compound, is DIGSA phytotoxicity rating (0-100) lower than 10? N#Cc1ccccc1Oc1cc(-n2c(=O)n3n(c2=S)CCCC3)c(F)cc1Cl
not satisfied

For this compound, is DIGSA phytotoxicity rating (0-100) lower than 10? O=C1C2CCCCN2C(=O)N1c1cc(Oc2ncccc2C(F)(F)F)c(Cl)cc1F (stereo not shown)
satisfied

For this compound, is DIGSA phytotoxicity rating (0-100) lower than 10? N#Cc1cc([N+](=O)[O-])ccc1Oc1cc(-n2c(=O)n3n(c2=S)CCCC3)c(F)cc1Cl
satisfied

For this compound, is DIGSA phytotoxicity rating (0-100) lower than 10? Cc1nsc(Oc2cc(-n3nnn(CCCF)c3=O)c(F)cc2Cl)c1[N+](=O)[O-]
satisfied

###

- System: upland rice (Oryza sp., var.Tebonnet, RICE)
- assay: Post-emerge greenhouse test, crop damage rating
- Format: in vivo
- experimental_context: 63 g al/ha, 14 days after application
endpoint: RICE crop damage rating (0-100)
Give bare numbers.

Worked cases, RICE crop damage rating (0-100) given:
Here O=c1n(CCCF)nnn1-c1cc(Oc2ncccn2)c(Cl)cc1Cl [Compound 6-14] was tested on upland rice (Oryza sp., var.Tebonnet, RICE), and its RICE crop damage rating (0-100) came to 20

Here Cn1nc(-c2cc(Oc3ncccn3)c(Cl)cc2F)c(Cl)c1C(F)(F)F [Compound 1-7] was tested on upland rice (Oryza sp., var.Tebonnet, RICE), and its RICE crop damage rating (0-100) came to 100

Here O=c1sc(=Nc2cc(Oc3ncccn3)c(Cl)cc2F)n2n1CCCC2 [Compound 7-2] was tested on upland rice (Oryza sp., var.Tebonnet, RICE), and its RICE crop damage rating (0-100) came to 80

Here O=c1n(-c2cc(Oc3ccc([N+](=O)[O-])cc3)c(Cl)cc2F)c(=S)n2n1CCCC2 [Compound 8-8] was tested on upland rice (Oryza sp., var.Tebonnet, RICE), and its RICE crop damage rating (0-100) came to 0

Here O=c1n(-c2cc(Oc3ccc([N+](=O)[O-])cc3C(F)(F)F)c(Cl)cc2F)c(=S)n2n1CCCC2 [Compound 8-14] was tested on upland rice (Oryza sp., var.Tebonnet, RICE), and its RICE crop damage rating (0-100) came to 0

Below are 8 molecules. Give each one its RICE crop damage rating (0-100).
1. O=c1n(CCCF)nnn1-c1cc(Oc2ncc(Br)cn2)c(Cl)cc1F [Compound 6-16]
2. O=C1C2CCCCN2C(=O)N1c1cc(Oc2ncccc2C(F)(F)F)c(Cl)cc1F (centres unmarked) [Compound 8-4]
3. Cn1nc(-c2cc(Oc3ncccc3C(F)(F)F)c(Cl)cc2F)c(Cl)c1C(F)(F)F [Compound 1-2]
4. CN1CC(=O)N(c2cc(Oc3ncccn3)c(Cl)cc2F)C1=O [Compound 8-3]
5. O=c1n(CCCF)nnn1-c1cc(Oc2ccc(C(F)(F)F)cn2)c(Cl)cc1Cl [Compound 6-9]
6. O=c1n(-c2cc(Oc3ccccc3)c(Cl)cc2F)c(=S)n2n1CCCC2 [Compound 8-5]
7. COc1cc(OC)nc(Oc2cc(-n3nnn(CCCF)c3=O)c(F)cc2Cl)n1 [Compound 6-15]
8. Cn1nc(-c2cc(Oc3ncccc3C#N)c(Cl)cc2F)c(Cl)c1C(F)(F)F [Compound 1-3]

[30, 0, 0, 0, 0, 0, 0, 20]

Below are 4 molecules. Give each one its RICE crop damage rating (0-100).
1. Cn1nc(-c2cc(Oc3ccc(C#N)cn3)c(Cl)cc2F)c(Cl)c1C(F)(F)F [Compound 1-4]
2. CCN1CC(=O)N(c2cc(Oc3ncccn3)c(Cl)cc2F)C1=O [Compound 8-2]
3. Nc1ccc(Oc2cc(-n3c(=O)n4n(c3=S)CCCC4)c(F)cc2Cl)cc1 [Compound 8-9]
4. Cc1nn(-c2cc(Oc3ncccn3)c(Cl)cc2F)c(=O)n1C(F)F [Compound 3-1]

20
0
0
70
